Target: FMP 37 SEQ ID No 9 (Blepharisma japonicum)
Sequence (A8R3H6 entry or part of it): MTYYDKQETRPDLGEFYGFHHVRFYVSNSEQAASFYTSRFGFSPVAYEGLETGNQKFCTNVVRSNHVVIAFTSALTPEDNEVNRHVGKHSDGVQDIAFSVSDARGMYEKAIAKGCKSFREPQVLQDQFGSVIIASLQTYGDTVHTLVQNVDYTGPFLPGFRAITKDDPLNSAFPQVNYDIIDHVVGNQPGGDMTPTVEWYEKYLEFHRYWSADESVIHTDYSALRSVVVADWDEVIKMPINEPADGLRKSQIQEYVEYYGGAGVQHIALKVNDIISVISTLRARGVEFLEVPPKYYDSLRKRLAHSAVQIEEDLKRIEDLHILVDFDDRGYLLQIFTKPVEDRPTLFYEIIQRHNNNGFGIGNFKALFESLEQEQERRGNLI
Experiment: Determination of HPPD activity in presence of N-(1,3,4-Oxadiazol-2-yl)arylcarboxamides (pI50)
Type: biochemical
Settings: negative log of molar concentration; inhibitor 0.1 to 100 μM; room temperature; 600 μM HPP
measured property: IC50 (µM)
Answer in µM, number only, no unit symbol.

Qu. Please give the measured IC50 for this compound: Cc1nnc(NC(=O)c2ccc(C(F)(F)F)c(S(C)(=O)=O)c2Cl)o1
Ans. 12.6

Qu. Please give the measured IC50 for this compound: Cc1nnc(NC(=O)c2ccc(C(F)(F)F)c(-n3cccn3)c2Cl)o1
Ans. 10

Qu. Please give the measured IC50 for this compound: Cc1nnc(NC(=O)c2ccc(C(F)(F)F)nc2C)o1
Ans. 7.94

Qu. Please give the measured IC50 for this compound: COCc1nnc(NC(=O)c2ccc(C(F)(F)F)c(S(C)(=O)=O)c2C)o1
Ans. 10

Qu. Please give the measured IC50 for this compound: Cc1nnc(NC(=O)c2ccc(C(F)(F)F)c([S+](C)[O-])c2C)o1 (centres unmarked)
Ans. 12.6

* * *

Molecular target: PfHPPD Evo 40 SEQ ID No 27 (Pseudomonas sp., UniProt P80064, A172V/A339E/A53E/D148E/D45N/E105D/E287Q/E300V/E334P/F143Y/G286D/G335S/H150N/H254A/H63N/I158V/I187A/I249V/K92N/L18F/N24G/N280D/S245T/S257K/S301E/T205S/V65I)
Sequence (P80064 1-354 with tags or gaps with the stated changes limits assumed): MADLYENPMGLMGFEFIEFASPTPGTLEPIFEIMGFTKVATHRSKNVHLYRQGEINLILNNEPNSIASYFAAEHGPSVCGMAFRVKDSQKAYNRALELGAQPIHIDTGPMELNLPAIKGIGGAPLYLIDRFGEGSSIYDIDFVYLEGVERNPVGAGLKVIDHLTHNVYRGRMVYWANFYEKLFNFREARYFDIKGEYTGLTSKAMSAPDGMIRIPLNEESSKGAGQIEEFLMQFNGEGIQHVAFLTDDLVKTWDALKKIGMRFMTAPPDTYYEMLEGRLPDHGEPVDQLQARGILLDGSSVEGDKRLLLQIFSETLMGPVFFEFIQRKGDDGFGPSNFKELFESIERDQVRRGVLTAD
Experiment: biochemical
pIC50: −log10 of the molar value.
Assign class by pIC50: not lower than 5 means label 1; lower than 5 means label 0.

> print(dat)
                                   molecule  class.assignment
1  Cc1nnc(NC(=O)c2ccc(C(F)(F)F)c(S(C)(=O)=O)c2C)o1           label 1
2  Cc1nnc(NC(=O)c2ccc(C(F)(F)F)c(-n3cccn3)c2Cl)o1           label 1

Qu. Textbook exercise: given the entry Cc1nnc(NC(=O)c2ccc(C(F)(F)F)c(S(C)(=O)=O)c2Cl)o1 , state whether its pIC50 is greater than or equal to 5.
Ans. label 1

Qu. Textbook exercise: given the entry Cc1c(C(=O)Nc2nnc(C3CC3)o2)ccc(C(F)(F)F)c1[S+](C)[O-] (stereo not drawn) , state whether its pIC50 is greater than or equal to 5.
Ans. label 0

Qu. Textbook exercise: given the entry COCc1nnc(NC(=O)c2ccc(C(F)(F)F)c(S(C)(=O)=O)c2C)o1 , state whether its pIC50 is greater than or equal to 5.
Ans. label 1

Qu. Textbook exercise: given the entry Cc1nnc(NC(=O)c2ccc(C(F)(F)F)c([S+](C)[O-])c2Cl)o1 (stereo not drawn) , state whether its pIC50 is greater than or equal to 5.
Ans. label 0

Qu. Textbook exercise: given the entry Cc1nnc(NC(=O)c2ccc(C(F)(F)F)c([S+](C)[O-])c2C)o1 (stereo not drawn) , state whether its pIC50 is greater than or equal to 5.
Ans. label 1

Qu. Textbook exercise: given the entry Cc1nnc(NC(=O)c2ccc(C(F)(F)F)nc2C)o1 , state whether its pIC50 is greater than or equal to 5.
Ans. label 0

* * *

Molecular target: FMP 37 SEQ ID No 9 (Blepharisma japonicum)
Experiment: Determination of HPPD activity in presence of N-(1,3,4-Oxadiazol-2-yl)arylcarboxamides (pI50)
Conditions: negative log of molar concentration; inhibitor 0.1 to 100 μM; room temperature; 600 μM HPP
measured property: pIC50
To interpret pIC50, take it as minus log10 of a concentration measured in moles per litre.

Use the examples below as a reference point.
> print(dat)
                                   compound  measured.result
1  Cc1nnc(NC(=O)c2ccc(C(F)(F)F)c(S(C)(=O)=O)c2C)o1             5.00
2  Cc1nnc(NC(=O)c2ccc(C(F)(F)F)c(OCCF)c2Cl)o1             5.10
3  Cc1nnc(NC(=O)c2ccc(C(F)(F)F)c([S+](C)[O-])c2Cl)o1 (stereo not shown)             4.70

Attention now turns to another entry.
Qu. What reported pIC50 corresponds to Cc1c(C(=O)Nc2nnc(C3CC3)o2)ccc(C(F)(F)F)c1[S+](C)[O-] (stereo not shown) on FMP 37 SEQ ID No 9 (Blepharisma japonicum)?
Ans. 3.80
